Every entry's value here was drawn from PubChem BioAssay (NCI).

tested on: OVCAR-8 ovarian; assay: NCI-60 one-dose screen, 48 h (100 = growth as untreated, 0 = no growth, -100 = all killed); conditions: 10 µM unless noted
About 83,000 compounds went through this panel and 20% of them were active in at least one assay; those are over-represented in the sample as a whole. Active and inactive are the calls of the source. The calls were made as follows: active = growth percent below 10; inactive = the rest.

| compound | system tested | growth |
| --- | --- | --- |
| COC(c1ccccc1)C(Br)C(=O)c1ccccc1 (stereo unspecified) | OVCAR-8 ovarian | 92.1% (inactive) |
| CCCCCCCCCCCCOC(=N)N(C)C | OVCAR-8 ovarian | 98.9% (inactive) |
| CC#Cc1nc(Nc2cc(C)[nH]n2)c2ccccc2n1 | OVCAR-8 ovarian | 13.8% [100 µM] (inactive) |
| COC1=CC(c2ccc[nH]2)=N/C1=C\c1[nH]c(C)c(C(=O)CCCCC(=O)NC(C)(C)C)c1C | OVCAR-8 ovarian | 28.2% (inactive) |
| COc1ccc(-c2nc(SCC(C)C)nc(Nc3ccc(C(=O)O)cc3)c2C#N)cc1 | OVCAR-8 ovarian | 97.1% (inactive) |
| O=P(OCCCl)(OCCCl)C(O)c1ccccc1Cl (stereo unspecified) | OVCAR-8 ovarian | 104% (inactive) |
